B1: C10orf62 (parent)
chain: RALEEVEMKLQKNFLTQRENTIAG

variants of: B1; assay: protein stability index of a GFP-peptide fusion (GPS, HEK-293T) (PSI 1-6); higher = more stable; settings: c terminus: a fixed tail appended;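 further: lentivirally expressed fusions sorted by FACS into six bins by GFP to DsRed ratio, PSI derived from sequencing read proportions per bin multiplied by bin number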
Record form. Attribute: protein stability index. Fill in for each entry.
Numbers only.

Below are worked cases with known answers.
{"columns": ["record_sequence", "protein stability index"],
 "data": [
  ["RAWEEVEMKLQKNFLTQRENTIAG [L3W]", 2.95],
  ["RALEEVEMKLQLNFLTQRENTIAG [K12L]", 2.67],
  ["RALEEVMMKLQKNFLTQRENTIAG [E7M]", 1.33],
  ["RALEEVGMKLQKNFLTQRENTIAG [E7G]", 2.84],
  ["RALEEVEMKLQKNFATQRENTIAG [L15A]", 3.92]
]}

Please state protein stability index for every variant in the list that follows.
1. RALEEVEMKDQKNFLTQRENTIAG [L10D]
2. RALEECEMKLQKNFLTQRENTIAG [V6C]
3. RALEEVCMKLQKNFLTQRENTIAG [E7C]
4. EALEEVEMKLQKNFLTQRENTIAG [R1E]

4.56
3.56
1.8
4.39

Please state protein stability index for every variant in the list that follows.
1. RALEEVEMKLQKNFLTQRWNTIAG [E19W]
2. RALEEVEMKLQKNFLTQRENRIAG [T21R]

1: 2.05; 2: 3.2
